Measured cAMP production (pmol/ml/µg prt) with saturated glucagon peptide, at 1 nM by item
- Assayed Target: human glucagon receptor (human, UniProt P47871 26-477)
- Sequence (P47871 26-477): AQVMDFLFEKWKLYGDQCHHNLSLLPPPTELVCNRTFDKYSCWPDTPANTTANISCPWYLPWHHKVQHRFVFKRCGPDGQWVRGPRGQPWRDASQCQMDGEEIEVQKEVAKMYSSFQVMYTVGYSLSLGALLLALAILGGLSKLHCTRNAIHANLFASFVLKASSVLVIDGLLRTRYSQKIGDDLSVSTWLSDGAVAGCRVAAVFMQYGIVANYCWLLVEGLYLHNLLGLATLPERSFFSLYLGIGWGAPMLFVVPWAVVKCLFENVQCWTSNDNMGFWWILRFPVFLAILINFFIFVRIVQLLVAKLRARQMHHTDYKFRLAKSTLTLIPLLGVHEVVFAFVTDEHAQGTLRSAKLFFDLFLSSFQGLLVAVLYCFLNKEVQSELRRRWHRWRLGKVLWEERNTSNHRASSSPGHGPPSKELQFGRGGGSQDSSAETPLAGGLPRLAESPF
- Assay Explanation: cell-based or functional assay
Where no end group is shown, it is not given here. [ ]: non-standard residue; d: D form. αMePhe(2,6-F2) = C[C@](N)(Cc1c(F)cccc1F)C(=O)O; αMePhe(2-F) = C[C@](N)(Cc1ccccc1F)C(=O)O; αMeBip(OMe) = alpha-methylated Bip(OMe); hhPhe = N[C@@H](CCCc1ccccc1)C(=O)O; αMeD = C[C@](N)(CC(=O)O)C(=O)O; αMeP = C[C@@]1(C(=O)O)CCCN1; αMeAPPA = not defined here; αMeS = C[C@](N)(CO)C(=O)O; Aib = CC(C)(N)C(=O)O
Measure Name: cAMP production (pmol/ml/µg prt) with saturated glucagon peptide, at 1 nM

>>> endpoint_result("VVH[αMeP]QGTFTSD[αMeBip(OMe)][hhPhe] (not fully specified (C-terminus); printed as VVH-(αMe-Pro)-QGTFTSD-(αMe-Bip(OMe))-(APPA)) [Seq. ID. No. 208]")
"4 pmol/ml/µg prt"
>>> endpoint_result("VH[Aib]QGT[αMePhe(2-F)]T[αMeS]D[αMeBip(OMe)][αMeAPPA] (not fully specified (C-terminus); reading uncertain) [Seq. ID. No. 167]")
"9 pmol/ml/µg prt"
>>> endpoint_result("VHSEGT[αMePhe(2-F)]T[αMeS]D[αMeBip(OMe)][αMeAPPA] (not fully specified (C-terminus); printed as VHSEGT-(αMe-2FPhe)-T-(αMe-Ser)-D-(αMe-Bip(OMe))-(αMe-APPA); reading uncertain) [Seq. ID. No. 169]")
"5 pmol/ml/µg prt"
>>> endpoint_result("VHSQGT[αMePhe(2-F)]TSD[αMeBip(OMe)][hhPhe] (not fully specified (C-terminus); printed as VHSQGT-(αMe-2FPhe)-TSD-(αMe-Bip(OMe))-(APPA)) [Seq. ID. No. 17]")
"6 pmol/ml/µg prt"
>>> endpoint_result("VH[Aib]QGT[αMePhe(2,6-F2)]TS[αMeD][αMeBip(OMe)][αMeAPPA] (not fully specified (C-terminus); reading uncertain) [Seq. ID. No. 199]")
"14 pmol/ml/µg prt"
>>> endpoint_result("VH[Aib]EGTFTS[αMeD][αMeBip(OMe)][hhPhe]-NH2 [Seq. ID. No. 63]")
"20 pmol/ml/µg prt"
>>> endpoint_result("VH[Aib]EGTFT[αMeS]D[αMeBip(OMe)][αMeAPPA] (not fully specified (C-terminus); printed as VH-Aib-EGTFT-(αMe-Ser)-D-(αMe-Bip(OMe))-(αMe-APPA); reading uncertain) [Seq. ID. No. 163]")
"15 pmol/ml/µg prt"
>>> endpoint_result("VH[αMeP]QGT[αMePhe(2,6-F2)]TS[αMeD][αMeBip(OMe)][αMeAPPA] (not fully specified (C-terminus); reading uncertain) [Seq. ID. No. 200]")
"10 pmol/ml/µg prt"

Provenance of the data: patent US20120264685A1
